- MEASURED ON: T1, NHERF3_1, Q5T2W1
- T1 sequence (Q5T2W1 4-100, limits assumed, looked up): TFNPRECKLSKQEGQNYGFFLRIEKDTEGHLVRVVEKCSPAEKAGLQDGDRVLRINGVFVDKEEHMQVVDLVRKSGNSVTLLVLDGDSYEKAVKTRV
- METHOD: holdup assay
- Design: key: below the threshold = too weak to quantify, mostly under pKd 3.1 to 4
- TEST CONDITIONS: plain residues with an end cap or a label only (N-terminal biotin on a linker: ado-ado)
PROPERTY LABEL: pKd

Take a look at these entries with their results.
binder="DSEEELPTRL [GRK6, P43250]" assay_result=4.06
binder="MLPANYVEAI [NEB, P20929]" assay_result="below the threshold"
binder="PDSYHRRDFW [U2AF2, P26368]" assay_result="below the threshold"
binder="PSDSVGKDVF [EGLN1, Q9GZT9]" assay_result="below the threshold"
binder="ELKAEDEVQI [DCHS2, Q6V1P9]" assay_result="below the threshold"

Task: For the binder TFSRRPKTRV [CD226, Q15762] , report pKd.
Output: below the threshold

Task: For the binder KAEEKPPSKV [SCN4B, Q8IWT1] , report pKd.
Output: below the threshold

Task: For the binder FLVTEFNVML [DFNB31, Q9P202] , report pKd.
Output: 4.88

Task: For the binder TNSKQGETTV [FZD1, Q9UP38] , report pKd.
Output: below the threshold

Origin of the recorded values: paper PMC9482650
